# target-or-test-system: T1, recombinant fibronectin domain ED-B (His)6 (human, UniProt P02751 1266-1356)
# T1 construct: domain: ED-B; Produced by standard procedures; immobilised on ELISA plates or on the BIAcore chip; also called recombinant ED-B; human ED-B
# assay-protocol: SPR (BIAcore), ED-B immobilised on chip (about 100 RU), Fab in flow
test-readout: koff (s⁻¹)
Give the value, in units of s⁻¹, as a plain number.

Can you look up the measured koff of MOR03257 (Fab, V domains shown, Fab, H-CDR2 derivative of MOR03062) VH: QVQLVESGGGLVQPGGSLRLSCAASGFTFSSYGMHWVRQAPGKGLEWVSVISNRGNYIYYADSVKGRFTISRDNSKNTLYLQMNSLRAEDTAVYYCARNKVGFDVWGQGTLVTVSS VL: DIALTQPASVSGSPGQSITISCTGTSSDGGGYNTVSWYQQHPGKAPKLMIYYVHKRPSGVSNRFSGSKSGNTASLTISGLQAEDEADYYCQSWDLSVHQVVFGGGTKLTVLG for me?
0.0003

Can you look up the measured koff of MOR03251 (Fab, V domains shown, Fab, H-CDR2 derivative of MOR03062) VH: QVQLVESGGGLVQPGGSLRLSCAASGFTFSSYGMHWVRQAPGKGLEWVSVISNMSYTIYYADSVKGRFTISRDNSKNTLYLQMNSLRAEDTAVYYCARNKVGFDVWGQGTLVTVSS VL: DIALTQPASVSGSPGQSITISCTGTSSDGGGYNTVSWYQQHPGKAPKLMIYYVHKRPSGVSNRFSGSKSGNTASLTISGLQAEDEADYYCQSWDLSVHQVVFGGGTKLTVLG for me?
0.0002

Can you look up the measured koff of MOR03243 (Fab, V domains shown, Fab, H-CDR2 derivative of MOR03055) VH: QVQLQESGPGLVKPGETLSLTCTVSGGSISSYYWSWIRQAPGKGLEWIGEIHRGGYTQYNPSLKSRVTISVDTSKNQFSLKLSSVTAADTAVYYCARFFDVWGQGTLVTVSS VL: DIVLTQPPSVSGAPGQRVTISCSGSSSNIGSNTVRWYQQLPGTAPKLLIYSNNKRPSGVPDRFSGSKSGTSASLAITGLQSEDEADYYCQAWTRAHRYPVFGGGTKLTVLG for me?
0.0018

Can you look up the measured koff of MOR03252 (Fab, V domains shown, Fab, H-CDR2 derivative of MOR03062) VH: QVQLVESGGGLVQPGGSLRLSCAASGFTFSSYGMHWVRQAPGKGLEWVSVISNYSWHIYYADSVKGRFTISRDNSKNTLYLQMNSLRAEDTAVYYCARNKVGFDVWGQGTLVTVSS VL: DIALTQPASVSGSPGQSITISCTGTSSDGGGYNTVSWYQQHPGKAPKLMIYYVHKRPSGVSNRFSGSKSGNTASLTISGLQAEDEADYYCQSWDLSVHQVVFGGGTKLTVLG for me?
6.1e-05

Can you look up the measured koff of MOR03245 (Fab, V domains shown, Fab, H-CDR2 derivative of MOR03069) VH: QVQLQESGPGLVKPGETLSLTCTVSGGSISSYYWSWIRQAPGKGLEWIGVIHKWGFTNYNPSLKSRVTISVDTSKNQFSLKLSSVTAADTAVYYCARFFDVWGQGTLVTVSS VL: DIVLTQPPSVSGAPGQRVTISCSGSSSNIGSNTVRWYQQLPGTAPKLLIYSNNKRPSGVPDRFSGSKSGTSASLAITGLQSEDEADYYCWTGMSYHFVFGGGTKLTVLG for me?
0.0016

Can you look up the measured koff of MOR03255 (Fab, V domains shown, Fab, H-CDR2 derivative of MOR03062) VH: QVQLVESGGGLVQPGGSLRLSCAASGFTFSSYGMHWVRQAPGKGLEWVSVISNRSSYIYYADSVKGRFTISRDNSKNTLYLQMNSLRAEDTAVYYCARNKVGFDVWGQGTLVTVSS VL: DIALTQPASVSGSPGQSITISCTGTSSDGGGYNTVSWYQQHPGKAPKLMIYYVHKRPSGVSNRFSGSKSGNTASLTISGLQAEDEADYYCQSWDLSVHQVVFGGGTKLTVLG for me?
8.6e-05

Can you look up the measured koff of MOR03253 (Fab, V domains shown, Fab, H-CDR2 derivative) VH: QVQLVESGGGLVQPGGSLRLSCAASGFTFSSYGMHWVRQAPGKGLEWVSVISNMGFEIYYADSVKGRFTISRDNSKNTLYLQMNSLRAEDTAVYYCARNKVGFDVWGQGTLVTVSS VL: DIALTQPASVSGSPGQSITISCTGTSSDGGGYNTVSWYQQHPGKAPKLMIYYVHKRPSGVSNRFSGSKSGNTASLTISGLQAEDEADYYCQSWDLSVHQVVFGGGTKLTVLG for me?
0.0002
